pKi: −log10 of the molar value.
Compiled pKi measurements on Adenosine receptor A1 (Rattus norvegicus, UniProt P25099) taken from the literature.
Sequence (P25099 whole entry): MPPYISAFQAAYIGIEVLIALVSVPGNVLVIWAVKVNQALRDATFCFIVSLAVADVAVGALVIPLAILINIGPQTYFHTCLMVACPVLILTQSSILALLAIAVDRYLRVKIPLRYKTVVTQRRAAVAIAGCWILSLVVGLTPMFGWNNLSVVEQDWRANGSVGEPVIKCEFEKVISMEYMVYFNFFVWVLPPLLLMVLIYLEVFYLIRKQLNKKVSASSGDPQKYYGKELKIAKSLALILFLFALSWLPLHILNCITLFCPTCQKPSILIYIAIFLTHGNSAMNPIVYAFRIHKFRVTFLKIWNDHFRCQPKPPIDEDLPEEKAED
measure name: pKi

Some compounds with known pKi results, for comparison:
>>> print(df.to_string())
                                   compound                       experimental_target  numeric_result
0  CCCn1c(=O)c2[nH]c(C34C[C@H]5CC3C[C@@H](C4)[C@H]5O)nc2n(CCC)c1=O (relative stereo)  Adenosine receptor A1 (Rattus norvegicus, UniProt P25099)            9.51
1  CCCn1c(=O)c2[nH]c([C@]34C[C@@H]5C[C@H](C3)[C@@H](O)[C@H]4C5)nc2n(CCC)c1=O (relative stereo)  Adenosine receptor A1 (Rattus norvegicus, UniProt P25099)            9.62
2  OC[C@H]1O[C@@H](n2cnc3c(NOC4CCCC4)nc(Cl)nc32)[C@H](O)[C@@H]1O  Adenosine receptor A1 (Rattus norvegicus, UniProt P25099)            8.17
3  CCCn1c(=O)c2[nH]c(C34CC5CC(CC(O)(C5)C3)C4)nc2n(CCC)c1=O  Adenosine receptor A1 (Rattus norvegicus, UniProt P25099)            8.29
4  OC[C@H]1O[C@@H](n2cnc3c(NN4CCCCC4)nc(F)nc32)[C@H](O)[C@@H]1O  Adenosine receptor A1 (Rattus norvegicus, UniProt P25099)            8.40

(I) O[C@@H]1[C@H](O)[C@@H](CF)O[C@H]1n1cnc2c(NN3CCCCC3)nc(Cl)nc21
(II) Cc1nnc(SC[C@@H](C)Nc2nc(Cl)nc3c2ncn3[C@@H]2O[C@H](CO)[C@@H](O)[C@H]2O)s1
I'm curious, which of these has a smaller pKi number: I or II ? When you have decided, please share the label of that item. II
(II: 8.05, I: 8.28)
